Sourced from patent US20210301005A1

experimental.target: T1, human TGFβ2, mature receptor-binding domain (human, UniProt P09858 303-414 (pig entry), The mature TGFβ2 is a disulfide-linked homodimer of this 112-residue chain. The 4A11 epitope spans both monomers (p-1207).)
T1 construct: Peprotech; also called TGFb2
T1 sequence: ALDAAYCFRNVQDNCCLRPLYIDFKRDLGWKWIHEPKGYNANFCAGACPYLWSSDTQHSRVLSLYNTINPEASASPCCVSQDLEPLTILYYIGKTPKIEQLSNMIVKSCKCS
experimental.details: BIAcore T200
Kindly supply the reported Kd values for the records listed here.
Numbers only, in pM.

binder: 4A11 (antibody, V domains shown, anti-TGFβ2/3, recombinant rabbit monoclonal; some paragraphs print the H/L pair as 32/33; also called Rb1.4A11; Rbt 4A11) VH: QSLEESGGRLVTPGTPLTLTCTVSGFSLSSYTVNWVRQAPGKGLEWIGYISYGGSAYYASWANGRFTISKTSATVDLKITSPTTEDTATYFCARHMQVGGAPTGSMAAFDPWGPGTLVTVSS VL: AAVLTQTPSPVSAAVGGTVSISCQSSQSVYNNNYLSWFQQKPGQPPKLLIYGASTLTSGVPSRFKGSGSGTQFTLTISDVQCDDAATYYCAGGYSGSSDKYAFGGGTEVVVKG
Kd / pM: 1.6

Continue with the next binder.
[Q] Determine from records and report Kd for h4A11.v1 (antibody, human IgG1, kappa, N297G, V domains shown) VH: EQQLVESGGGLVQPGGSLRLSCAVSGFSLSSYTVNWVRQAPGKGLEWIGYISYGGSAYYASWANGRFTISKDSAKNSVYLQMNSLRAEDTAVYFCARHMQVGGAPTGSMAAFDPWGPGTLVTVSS VL: DAVLTQSPDSLAVSLGERATINCQSSQSVYNNNYLSWFQQKPGQPPKLLIYGASTLTSGVPDRFSGSGSGTDFTLTISSLQAEDVAVYYCAGGYSGSSDKYAFGGGTKVEIKR
[A] 4.6
